Assay System: T1, rat α-CGRP (1-37) (rat, C-terminal amide; N-terminal biotin when captured on the SA chip)
T1 construct: also called rat α (1-37); α-rat
T1 peptide: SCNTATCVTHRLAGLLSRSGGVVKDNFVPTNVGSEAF
Assay Details: Biacore, 37°C, Fab over CGRP on SA chip
Recorded Endpoint: pKd
A value of pKd is the negative decimal logarithm of a concentration given in moles per litre.

Note to self: pKd recorded for antibody G1 Fab fragment (Fab, V domains shown) VH: EVQLVESGGGLVQPGGSLRLSCAASGFTFSNYWISWVRQAPGKGLEWVAEIRSESDASATHYAEAVKGRFTISRDNAKNSLYLQMNSLRAEDTAVYYCLAYFDYGLAIQNYWGQGTLVTVSS VL: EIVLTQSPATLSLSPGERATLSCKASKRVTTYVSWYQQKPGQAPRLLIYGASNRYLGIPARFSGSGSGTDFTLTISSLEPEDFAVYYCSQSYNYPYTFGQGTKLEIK was 8.59

// recorded pKd for G1 variant M81 Fab (Fab, V domains shown, Fab; constant domains as m1) VH: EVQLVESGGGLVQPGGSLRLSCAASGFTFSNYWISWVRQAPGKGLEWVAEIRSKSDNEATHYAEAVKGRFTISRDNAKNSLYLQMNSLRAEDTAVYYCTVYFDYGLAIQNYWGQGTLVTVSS VL: EIVLTQSPATLSLSPGERATLSCKASKNVSTYVSWYQQKPGQAPRLLIYGASNRYSGIPARFSGSGSGTDFTLTISSLEPEDFAVYYCSQSYNYPYTFGQGTKLEIK : 6.62

Form field pKd, entry G1 variant M16 Fab (Fab, V domains shown, Fab; constant domains as m1) VH: EVQLVESGGGLVQPGGSLRLSCAASGFTFSNYWISWVRQAPGKGLEWVAEIRSESDASATHYAEAVKGRFTISRDNAKNSLYLQMNSLRAEDTAVYYCTSYFDYGLAIQNYWGQGTLVTVSS VL: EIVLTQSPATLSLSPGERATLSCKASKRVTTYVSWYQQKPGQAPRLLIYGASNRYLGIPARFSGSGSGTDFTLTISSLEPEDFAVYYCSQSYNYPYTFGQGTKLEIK : 7.26

Source of measurements: patent US20190071490A1
